# Target or system: human c-Mpl-introduced Ba/F3 cell (Homo sapiens)
# Construct: expressed in transfected cells
# Sequence (P40238 26-635): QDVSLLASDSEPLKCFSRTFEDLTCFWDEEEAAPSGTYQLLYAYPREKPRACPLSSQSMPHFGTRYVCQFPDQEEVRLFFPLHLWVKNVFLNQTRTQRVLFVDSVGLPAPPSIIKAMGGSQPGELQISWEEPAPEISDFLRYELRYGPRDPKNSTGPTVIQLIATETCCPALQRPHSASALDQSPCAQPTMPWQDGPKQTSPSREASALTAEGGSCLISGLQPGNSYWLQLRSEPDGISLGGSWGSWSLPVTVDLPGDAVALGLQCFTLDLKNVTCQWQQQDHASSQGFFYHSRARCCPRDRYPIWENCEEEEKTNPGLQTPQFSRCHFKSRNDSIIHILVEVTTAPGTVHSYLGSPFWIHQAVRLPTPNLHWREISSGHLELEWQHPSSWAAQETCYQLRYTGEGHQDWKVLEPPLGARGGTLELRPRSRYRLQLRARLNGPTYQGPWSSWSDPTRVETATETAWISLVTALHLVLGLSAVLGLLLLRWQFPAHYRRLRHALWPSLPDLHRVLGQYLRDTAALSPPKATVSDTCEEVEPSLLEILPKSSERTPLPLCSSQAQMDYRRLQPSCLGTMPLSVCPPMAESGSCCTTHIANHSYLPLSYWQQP
# Experimental protocol: Test Example 2: human c-Mpl-introduced Ba/F3 cell proliferative activity
# Assay type: cell-based
# Assay context: concentration exhibiting 30% proliferation; 100% = positive control (Example 315 of Patent Document 1) at 1 μM
Metric name: human c-Mpl-introduced Ba/F3 cell proliferative activity EC30 (µM)

> print(dat)
                                   compound                          target.or.system  experimental.value
1  C[C@@H]1CN(c2cnc(C(=O)Nc3nc(-c4cc(Cl)cs4)c(CN4CCC[C@H]4C)s3)cn2)CCN1CCC(=O)O [Example 79]  human c-Mpl-introduced Ba/F3 cell (Homo sapiens)                 1.8

1. C[C@@H]1CCCN1Cc1sc(NC(=O)c2cnc(N3CCN(CCC(=O)O)[C@@H](C)C3)cn2)nc1-c1cc(C(F)(F)F)cs1 [Example 95]
2. C[C@@H]1CCCN1Cc1sc(NC(=O)c2cnc(N3CCN(CC(=O)O)CC3)cn2)nc1-c1ccc(F)c(C(F)(F)F)c1 [Example 61]
3. C[C@@H]1CCCN1Cc1sc(NC(=O)c2cnc(N3CCN(CCC(=O)O)CC3)cn2)nc1-c1ccc(F)c(C(F)(F)F)c1 [Example 60]
Please list the entries, largest human c-Mpl-introduced Ba/F3 cell proliferative activity EC30 first. // respond by listing labels in the order requested
3, 1, 2
